Overview of reported pIC50 across a group of compounds:
# Target or system: chicken gizzard smooth muscle myosin subfragment-1 chemically crosslinked to cardiac or skeletal actin (Gallus gallus)
Schema: pIC50 number; meaning minus log10 of the concentration expressed in molar units.

Field: example entries. Status: answers known.
[[record]]
compound = "CC(=O)NCCNC(=O)c1ccc(-c2ccccc2C#N)nc1NCCc1cccc(F)c1"
readout_number = 6.02

[[record]]
compound = "NCc1ccc(CNC(=O)c2ccc(-c3ccccc3)nc2NCCc2cccc(F)c2)nc1"
readout_number = 5.97

[[record]]
compound = "N#Cc1ccccc1-c1ccc(C(=O)NCC(CN)C(=O)NCCN)c(NCCc2cccc(F)c2)n1 (centres unmarked)"
readout_number = 4.86


Form field: reported pIC50 of Cc1ccc(-c2ccc(C(=O)NCc3cccnc3)c(NCCc3cccc(F)c3)n2)c(Cl)c1
5.68

Fill in: pIC50 of C=Cc1ccccc1-c1ccc(C(=O)NCc2cccnc2)c(NCCc2ccccn2)n1 is ___
5.27

Name the recorded pIC50 for O=C(NCc1cccnc1)c1ccc(-c2ccsc2)nc1NCCc1cc(F)cc(F)c1 .
7.40

Requested read-out: pIC50. Entry: N#Cc1ccccc1-c1ccc(C(=O)NCc2cccc(NCCCN)n2)c(NCCc2cccc(F)c2)n1
8.30

Record request: pIC50 value, item CC(=O)N1CCN(C)C[C@@H]1CNC(=O)c1ccc(-c2ccccc2C#N)nc1NCCc1cccc(F)c1
5.17

Dear colleague, I am looking for the recorded pIC50 of the following compound: NC(=O)c1ccccc1-c1ccc(C(=O)NCc2cccnc2)c(NCCc2cccc(F)c2)n1
4.79

Given C[C@@H](CNC(=O)c1ccc(-c2ccccc2C#N)nc1NCCc1cccc(F)c1)N(C)S(C)(=O)=O , state its recorded pIC50.
5.23

Need pIC50, item N#CCc1ccccc1-c1ccc(C(=O)NCc2cccnc2)c(NCCc2cccc(F)c2)n1
4.79
